target: Protein farnesyltransferase (Homo sapiens, UniProt P49354+P49356); assay: Inhibition of human recombinant FTase by fluorescent-based assay; assay type: protein-complex assay; conditions: read-out: IC50
pIC50: −log10 of the molar value.
For each of the molecules below, state its pIC50.

What value of measured pIC50 is listed for `CC(C)=CCC/C(C)=C/CC/C(C)=C/CCC(N)=O` ?
< 3.70

What value of measured pIC50 is listed for `CC(C)=CCC/C(C)=C/CC/C(C)=C/CCC(=O)NS(=O)(=O)c1ccccc1` ?
< 3.70

What value of measured pIC50 is listed for `CC(C)=CCC/C(C)=C/CC/C(C)=C/CCC(=O)CCC(=O)O` ?
< 3.70
